B1: SLC19A2 (parent)
chain: FASLRPSEPFLTPYLLGPDKNLTE

Variants of: B1
Procedure Text: protein stability index of a GFP-peptide fusion (GPS, HEK-293T) (PSI 1-6); higher = more stable;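 note: lentivirally expressed fusions sorted by FACS into six bins by GFP to DsRed ratio, PSI derived from sequencing read proportions per bin multiplied by bin number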
Condition Notes: c terminus: a fixed tail appended
Measure: protein stability index

>>> print(df.to_string())
              item_sequence  assay_value
0  FASLRPSEPFLTPYDLGPDKNLTE         2.43
1  FGSLRPSEPFLTPYLLGPDKNLTE         2.74
2  FASLRESEPFLTPYLLGPDKNLTE         1.65
3  FASLRPSEPFLTPYLLGPDKNLME         1.52
4  FASLRPSERFLTPYLLGPDKNLTE         1.39
5  FASQRPSEPFLTPYLLGPDKNLTE         2.15
6  FATLRPSEPFLTPYLLGPDKNLTE         2.83
7  FASLRPSEPFLTPYLLGPDKMLTE         2.39
8  FAKLRPSEPFLTPYLLGPDKNLTE         2.78
9  FASLRPSEPFLTPYLLGPDKNLEE         2.02

These data points were gathered from the supplement of paper PMC10567573.
